Reference source: PubChem BioAssay AID1159580

Assignment: determine reported normalized growth for the given compounds.
Test: chemical genetic growth profiling, strain panel (AID 1159580);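 also: tested at 20 µM; growth read once vehicle control cultures reached saturation at 30 °C; 1 = growth at the plate median or of vehicle wells; lower values mean less growth of the strain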
Conditions: S. cerevisiae deletion strains, growth OD, locus YMR129W, active compounds read low
In all, about 5,500 compounds went through this assay and about 2,000 (36%) were called active. Inconclusive results (about 18%) are left out. Some of the results follow.
Answers are plain numbers.

Reference set (5 entries):
compound	recordedMeasurement
CN[C@@H]1C(O)[C@@H](O[C@@H]2[C@@H](O)[C@H](O[C@H]3OC(CN)=CC[C@H]3N)[C@@H](N)C[C@H]2N)OC[C@]1(C)O (some centres not stated)	1.01
CNC(C)C(O)c1ccccc1 (configuration not stated)	1
CC(C)[N+](C)(CCC(C(N)=O)(c1ccccc1)c1ccccc1)C(C)C	0.996
COc1cc(OC)c2c(=O)c(OC)c(-c3ccc(OC)c(OC)c3)oc2c1	1.03
COC1=CC(=O)C(C(=O)c2ccccc2)=CC1=O	1

// for each compound below, give its normalized growth
1. C[C@@H]1CC[C@@]2(OC1)O[C@H]1CC3C4CC[C@H]5C[C@@H](O)CC[C@]5(C)C4CC[C@]3(C)[C@H]1[C@@H]2C (some centres not stated)
2. O=c1ccc2c(O)c3ccoc3cc2o1
3. C[N+](C)(C)CC(O)CC(=O)O (configuration not stated)
4. CCN(Cc1ccncc1)C(=O)C(CO)c1ccccc1 (configuration not stated)
5. C[C@]12CCC3c4ccc(O)cc4CCC3C1CC[C@@H]2O (some centres not stated)

[0.987, 0.976, 0.991, 1.02, 1.02]

----------
Assay: chemical genetic growth profiling, strain panel (AID 1159580);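 also: tested at 20 µM; growth read once vehicle control cultures reached saturation at 30 °C; 1 = growth at the plate median or of vehicle wells; lower values mean less growth of the strain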
Settings: S. cerevisiae deletion strains, growth OD, locus YHR129C, strain ARP1, active compounds read low
Hit rate of the full screen: of about 5,500 compounds, about 2,000 (36%) were called active. Another 18% or so got no clear call; they are omitted. The list shows a part of the results.
Assignment: determine reported normalized growth for the given compounds.
One number for each entry.

compound	recordedMeasurement
CC1CCC2(OC1)OC1CC3C4CC[C@H]5C[C@@H](O)CC[C@]5(C)C4CC(=O)[C@]3(C)C1C2C (stereo partly specified)	1
COc1ccc(-c2cc(=O)c3c(O)cc(O[C@@H]4O[C@H](CO[C@H]5O[C@H](C)[C@@H](O)[C@H](O)[C@@H]5O)[C@@H](O)[C@H](O)[C@H]4O)cc3o2)cc1O	0.988
C[C@@H]1CC[C@@]2(OC1)OC1CC3C4CC=C5C[C@@H](O)CC[C@]5(C)C4CC[C@]3(C)C1[C@@H]2C (stereo partly specified)	0.993
CCc1cccc(CC)c1N(COC)C(=O)CCl	1

// for each compound below, give its normalized growth
1. CC(C)c1c(O)ccc2c1CCC1C(C)(C)CCC[C@]21C (stereo partly specified)
2. CC(C)(O)[C@@H]1Cc2cc3ccc(=O)oc3cc2O1
3. CC(=O)OC1CN2CCC1CC2 (stereo unspecified)
4. COC(=O)[C@@]1(C)CCC[C@]2(C)c3ccc(O)c(C(C)C)c3CCC12 (stereo partly specified)
5. CO[C@@]1(NC(=O)C(C(=O)O)c2ccc(O)cc2)C(=O)N2C(C(=O)O)=C(CSc3nnnn3C)CO[C@@H]21 (stereo partly specified)

[0.0824, 1.01, 1, 0.518, 1]

// for each compound below, give its normalized growth
1. CCCCOc1cc(C(=O)NCCN(CC)CC)c2ccccc2n1
2. NC(=O)CN1CCCC1=O

1. 1.01
2. 1.01

// for each compound below, give its normalized growth
1. C[C@@H]1O[C@@H](OC[C@H]2OC(Oc3c(-c4ccc(O)c(O)c4)oc4cc(O)cc(O)c4c3=O)[C@H](O)[C@@H](O)[C@@H]2O)[C@H](O)[C@H](O)[C@H]1O (stereo partly specified)
2. O=C(O[C@@H]1Cc2c(O)cc(O)cc2O[C@@H]1c1cc(O)c(=O)c2c(O)c(O)cc([C@H]3Oc4cc(O)cc(O)c4C[C@H]3OC(=O)c3cc(O)c(O)c(O)c3)c2c1)c1cc(O)c(O)c(O)c1
3. COc1ccc2c(c1C(C)C)CCC1C(C)(C)C(=O)CCC21C (stereo unspecified)

1.01
0.845
0.983

// for each compound below, give its normalized growth
1. CC(=O)OCC1=C(C(=O)O)N2C(=O)[C@@H](NC(=O)Cc3cccs3)[C@H]2SC1
2. CC1CC[C@@]2(OC1)O[C@H]1CC3C4CC[C@@H]5C[C@@H](O)CC[C@]5(C)C4CC[C@]3(C)[C@H]1[C@@H]2C (stereo partly specified)
3. CCN1C[C@]2(C)CC[C@H](OC)[C@]34C2[C@H](O)[C@]2(OCO[C@@]25C[C@H](OC)[C@H]2C[C@]3(O)C5[C@H]2O)C14
4. CCC(c1ccc(O)cc1)C(CC)c1ccc(O)cc1 (stereo unspecified)
5. CC1(C)O[C@H]2CC(=O)OC[C@]23[C@H]2CC[C@@]4(C)[C@H](c5ccoc5)OC(=O)[C@H]5O[C@]54[C@]2(C)C(=O)C[C@@H]13
6. C[C@@H]1CC[C@@]2(NC1)O[C@H]1C[C@H]3C4CC=C5C[C@@H](O)CC[C@]5(C)C4CC[C@]3(C)C1[C@@H]2C (stereo partly specified)
7. CC(C)C1COc2cc3oc(=O)ccc3cc2O1 (stereo unspecified)

0.984
1.05
1
1.01
1
0.0688
0.396
